molecular target: RanGTP-importin-beta complex (human Ran / KPNB1); assay: disruptors of RanGTP/KPNB1 binding – biochemical, FRET, CFP/YFP, cell-free homogeneous, confirmation (AID 2823); conditions: CFP-Ran/YFP-importin-beta FRET ratio
Active and inactive are the calls of the source. No rule for the calls is given here.
Can you answer with just one of these options? 1 (yes) = active, 0 (no) = inactive

Consider the following illustrative entries.
CCc1ccccc1NC(=O)/C(C#N)=C\c1ccc(Sc2ccccc2)o1	0 (no)
O=C(Cn1nnc(-c2ccncc2)n1)NCCc1ccccc1	0 (no)

Prompt: # fetch the recorded call for `CN1CCN(C(=O)c2cc3nc(-c4ccccc4)cc(C(F)(F)F)n3n2)CC1` here
Completion: 0 (no)

Prompt: # fetch the recorded call for `COc1ccc(OC)c(Nc2c3ccccc3nc3ccccc23)c1` here
Completion: 0 (no)

Prompt: # fetch the recorded call for `Cc1ccc(S(=O)(=O)c2cc3c(=O)n4cccc(C)c4nc3n(C3CCCCC3)c2=N)cc1` here
Completion: 1 (yes)

Prompt: # fetch the recorded call for `CCOC(=O)c1sc(NC(=O)Nc2ccc(F)cc2)nc1C` here
Completion: 0 (no)

Prompt: # fetch the recorded call for CC1CC(C)CN(c2cc(=O)n(Cc3ccc(F)cc3)c(=O)[nH]2)C1 (stereo not drawn) here
Completion: 0 (no)

Prompt: # fetch the recorded call for `COc1cc2c(cc1OC)CN(Cc1cc(=O)oc3c(C)c(C)ccc13)CC2` here
Completion: 0 (no)

Prompt: # fetch the recorded call for `Cc1cc(C2C(C#N)=C(N)SC(N)=C2C#N)c(C)s1` here
Completion: 0 (no)

Prompt: # fetch the recorded call for `COc1ccc(-c2c(C)sc(NC(=O)c3ccnn3C)c2C#N)cc1` here
Completion: 0 (no)

Prompt: # fetch the recorded call for `c1ccc2sc(NC3=NCN(CCN4CCOCC4)CN3)nc2c1` here
Completion: 0 (no)

Prompt: # fetch the recorded call for CCOC(=O)c1ccccc1NC(=O)COC(=O)C(CCSC)NC(=O)COc1ccccc1 (stereo not drawn) here
Completion: 0 (no)

Prompt: # fetch the recorded call for `Oc1ccc(/C=N/Nc2cc(N3CCOCC3)nc(N3CCOCC3)n2)cc1` here
Completion: 0 (no)

Prompt: # fetch the recorded call for `Cc1c(N=Cc2c(O)n(Cc3ccco3)c(=O)c3ccccc23)c(=O)n(-c2ccccc2)n1C` here
Completion: 0 (no)

Prompt: # fetch the recorded call for `O=c1[nH]c(Nc2ccccc2Cl)cc2ccccc12` here
Completion: 0 (no)

Prompt: # fetch the recorded call for CC(=O)N1c2ccc(S(=O)(=O)N3CCC(C(=O)Nc4cccc(Cl)c4)CC3)cc2CC1C (stereo not drawn) here
Completion: 0 (no)

Prompt: # fetch the recorded call for `CSc1nc(NCC(C)C)c2c3c(sc2n1)CN(C)CC3` here
Completion: 1 (yes)

Prompt: # fetch the recorded call for `CC(=O)Oc1cc2oc(=O)cc(C)c2cc1OC(C)=O` here
Completion: 1 (yes)
